Recorded IC50, one value per entry.
- TARGET OR TEST SYSTEM: Rac GTPase-activating protein 1 (Homo sapiens, UniProt Q9H0H5)
- Sequence (Q9H0H5 whole entry): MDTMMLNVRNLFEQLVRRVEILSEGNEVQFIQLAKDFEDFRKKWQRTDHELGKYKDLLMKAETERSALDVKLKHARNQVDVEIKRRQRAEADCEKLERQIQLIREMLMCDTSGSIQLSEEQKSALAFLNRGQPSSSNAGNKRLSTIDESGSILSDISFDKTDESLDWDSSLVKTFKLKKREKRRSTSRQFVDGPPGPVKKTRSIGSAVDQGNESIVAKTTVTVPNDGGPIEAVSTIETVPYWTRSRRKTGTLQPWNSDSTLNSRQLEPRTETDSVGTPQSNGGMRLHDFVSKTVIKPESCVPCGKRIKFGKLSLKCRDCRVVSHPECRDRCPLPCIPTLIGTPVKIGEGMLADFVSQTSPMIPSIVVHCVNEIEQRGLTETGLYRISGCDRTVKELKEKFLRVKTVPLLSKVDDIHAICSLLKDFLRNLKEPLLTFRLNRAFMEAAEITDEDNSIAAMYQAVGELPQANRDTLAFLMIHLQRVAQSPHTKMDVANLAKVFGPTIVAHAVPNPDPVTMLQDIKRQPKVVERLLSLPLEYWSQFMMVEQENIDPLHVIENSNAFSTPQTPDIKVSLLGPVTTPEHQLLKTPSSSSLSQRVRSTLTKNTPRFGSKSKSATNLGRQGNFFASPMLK
- PROTOCOL DETAILS: MgcRacGAP GTPase-activating activity inhibitors, confirmation, biochemical, ADP Hunter fluorescence, primary and confirmatory (AID 624330)
- Type: functional
The source made the active and inactive calls. How the calls were made is not given here.

The following compounds have reported results that may help.
- Oc1ccc(-c2cn3c(n2)SCC3)cc1: 18.9 µM (active)
- CN(c1ccc(O)cc1)c1nc(-c2ccccc2)cs1: 57.7 µM (active)

compound `CN(C)c1ccc(Nc2ccc([N+](=O)[O-])cn2)cc1` , IC50 observed: 36.4 µM (active)

Documented IC50 of `Cc1cc(O)ccc1/N=C/c1c(C(F)(F)F)n[nH]c1O` : 30.2 µM (active)

Entry `CCCS(=O)(=O)N1CCN(Cc2ccco2)CC1` , IC50 reported as 130 µM (active)

The compound listed as `COc1ccc2c3c(cccc13)N(C)N=C2C` shows IC50 equal to 34.4 µM (active)

Entry `Cc1ccc(OCCCCNC(C)(C)C)c([N+](=O)[O-])c1` ; IC50 = 141 µM (active)

According to the records, this compound `Cc1ccc(COC(=O)Cc2coc3cc(O)ccc23)cc1` displays IC50 of 30.1 µM (active)

`Cc1cccc(Nc2c(-c3ccc(O)cc3)nc3ncccn23)c1` has a reported IC50 of 32.1 µM (active)

* * *

These records show AC50 for Cytochrome P450 3A4 (Homo sapiens, UniProt P08684).

Example results:
* Cc1nc2cnc(Nc3ccccc3)nc2n(C)c1=O | 15.8 µM (inconclusive)
* CCCC(=O)/N=C1\SC2CS(=O)(=O)CC2N1c1ccc(CC)cc1 (stereo not drawn) | 12.6 µM (inconclusive)
* CCOCC(=O)Nc1c(C(=O)Nc2ccccc2OC)oc2ccccc12 | 6.31 µM (inconclusive)

Entry `CCc1ccc(N2C(=O)/C(=C/c3cccs3)N(CC(=O)OC)C2=S)cc1` , Cytochrome P450 3A4 (Homo sapiens, UniProt P08684) data, AC50 value: 12.6 µM (inconclusive)

Cytochrome P450 3A4 (Homo sapiens, UniProt P08684) assay, compound Cc1c(Cl)cccc1NC(=O)CC1NCCNC1=O (stereo not drawn) , recorded AC50 = 20 µM (inconclusive)

Lab entry: Cytochrome P450 3A4 (Homo sapiens, UniProt P08684) assay, compound `COC(=O)c1nn(-c2cccc(C(F)(F)F)c2)c(=O)cc1Sc1ccccn1` , AC50 = 20 µM (inconclusive)

Bench note, Cytochrome P450 3A4 (Homo sapiens, UniProt P08684): entry `COc1cccc(Cn2c(=O)c(-c3cccc(C#N)c3)nc3cnc(Nc4ccccc4)nc32)c1` , its AC50 = 0.794 µM (inconclusive)

Item: `COc1ccc(-c2nn(-c3ccccc3)cc2/C=N/NC(=O)c2ccc(Br)o2)cc1` | System: Cytochrome P450 3A4 (Homo sapiens, UniProt P08684) | AC50: 15.8 µM (inconclusive)
